# EXPERIMENTAL_DETAILS: yeast display, Sf9 membrane polyspecificity reagent, FACS + sequencing; frameworks hold sequencing errors
MEASUREMENT_NAME: polyreactivity (PSR sort gate)

Example results:
monomer_sequence=QVQLVESGGGLVQAGGSLRLSCPASGRTFPGYSKGWYRQAPGKERELVATITGNGGSTYYADSVKGRFTISRENAKNTVYLQMNSLKPEDTAVYYCAGGRRRPYVRAYRGTDYWVQGTQVTVSS recorded_value="low polyreactivity"
monomer_sequence=QVQLVESGGGLVQAGGSLRLSCAASGSTFNRYALGWYRQAPGKEREFVAAISTRGGSTHYADSVKGRFTISRDNAKNTVYLQMNSLKPEDTAVYYCNARGYYSVPSNTGIRYYRFDYWGQGTQVTVSS recorded_value="low polyreactivity"
monomer_sequence=QVQLVESGGGLVQAGGSLRLSCAASGFIYRLNAMGWYRQAPGKERELVAAISTYADSVKGRFTFSRDNAKTTVYLQMNSLKPEDTAVYYCAKDYTDSYAYRTGFDYWGQGTQVTVSS recorded_value="low polyreactivity"
monomer_sequence=QVQLEESGGGLVQAGGSLRLSCAASGLNIAVYTMGWYRQAPGKERELVAAITRRSTRTYYADSVKGRFTISRDNALISVFLQMNSLKPEDTAVYYCAADRVSSGAAFEFWGQGTQVTVSS recorded_value="low polyreactivity"

Q) Output measured polyreactivity (PSR sort gate) for this item: QVQLVESGGGLVQAGGSLRLSCAASGLTFDVYAMGWYRQAPGKERELVAAISSIGGSTYYADSVKGRFTISRDNAKNTVYLQMNSLKPEDTAVYYCNADYFGGGDYWGQGTQVTVSS
A) low polyreactivity

Q) Output measured polyreactivity (PSR sort gate) for this item: QVQLVESGGGLVQEGGSLRLSCAASGNIFRINGMGWYRQAPGKERELVATITGNGGSTYYAASVKGRFTISRDNAQNTVYLQMNSLKPEDTAVFYCAAQTTVYIYDYWGQGTQVTVSS
A) low polyreactivity

Q) Output measured polyreactivity (PSR sort gate) for this item: QVQLVESGGGLVQAGGSLRLSCAASGFTFFDYVMGWYRQAPGKERELVAAISSSGGSTNYADSVKGRFTISRDHAKNTVYLQMNSLKPEDTAVYYCNKVTYGYAYWRYDGYDYWGQGTQVTVSS
A) low polyreactivity

Q) Output measured polyreactivity (PSR sort gate) for this item: QVQLVESGGGLVQAGGSLRLSCAASGRIFDIYAMGWYRQAPGKEGELVAAIRLSSGTTYYADSLKGRITISRDYAKNNVYLQMSSVKQEDSAVYYCNAIYRRGRPGYYYWGQGTQVNVSS
A) high polyreactivity

Q) Output measured polyreactivity (PSR sort gate) for this item: QVQLVESGGGLVQAGGSLRLSCASSGRTLRRYAMGWYRQAPGKERELVAAISRSGSSTYADSVKGRFTISRDNAKNTVYLQMNSLKPEDTAVYYCNAYQPRYVYWGQGTQVTVSS
A) high polyreactivity

Q) Output measured polyreactivity (PSR sort gate) for this item: QVQLVESGGGLVQAGGSLRLSCAASGITFRAYVMGWYRQEPGKERELVAAINRRGGSTYYADSVKGRFTISRDNAKNTVYLQMNSLKPEDTAVYYCAAGLYSTGYTYDYWGQGTQVTVSS
A) high polyreactivity

Q) Output measured polyreactivity (PSR sort gate) for this item: QVQLVESGGGLVQAGGSLRLSCAASGSIFGRYAMGWYRQAPGKERELVAAITRSGVSTYYADSVKGRFTISRDNAKNTVYLQMNSLKPEDTAVYYCNAYYPIRSSPNGYYYWGQGTQVTVSS
A) high polyreactivity

Ref: the nanobody polyreactivity screen of Harvey et al. (2022)
